target.system: rat brain AChE (Rattus norvegicus, UniProt P37136)
Construct: Rat brain homogenate prepared in 10 ml/g 10 mM Tris, pH 7.4, plus 1% Triton X-100 was used as a source of AChE; from tissue; host or cells: rat brain homogenate (10 mM Tris, pH 7.4, 1% Triton X-100)
Sequence (P37136 32-614): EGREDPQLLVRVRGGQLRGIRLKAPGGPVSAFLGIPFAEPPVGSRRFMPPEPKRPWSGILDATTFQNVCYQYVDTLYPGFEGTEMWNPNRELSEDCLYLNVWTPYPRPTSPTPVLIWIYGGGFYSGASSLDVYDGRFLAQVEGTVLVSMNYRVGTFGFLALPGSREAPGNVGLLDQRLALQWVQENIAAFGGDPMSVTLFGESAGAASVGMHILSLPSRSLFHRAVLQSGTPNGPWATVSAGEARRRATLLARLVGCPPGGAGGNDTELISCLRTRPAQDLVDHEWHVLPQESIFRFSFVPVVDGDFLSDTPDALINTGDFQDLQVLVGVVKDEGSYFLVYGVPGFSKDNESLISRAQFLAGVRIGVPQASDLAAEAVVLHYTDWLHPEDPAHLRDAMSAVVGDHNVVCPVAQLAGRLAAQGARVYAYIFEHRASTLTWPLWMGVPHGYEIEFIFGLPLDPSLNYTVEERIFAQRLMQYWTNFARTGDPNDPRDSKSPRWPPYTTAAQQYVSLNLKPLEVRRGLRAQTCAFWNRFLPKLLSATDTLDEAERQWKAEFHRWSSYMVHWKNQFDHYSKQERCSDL
experiment: biochemical
List of IC50 values.
observed.property: IC50 (µM)

smiles: c1ccc2c(NCCCCCCCCNc3c4c(nc5ccccc35)CCCC4)c3c(nc2c1)CCCC3
readout.number: 0.0005

smiles: c1ccc(CCCCCCCCNc2c3c(nc4ccccc24)CCCC3)cc1
readout.number: 0.22

smiles: c1ccc(CCCCCCCCCCNc2c3c(nc4ccccc24)CCCC3)cc1
readout.number: 3

smiles: c1ccc(CCCCNc2c3c(nc4ccccc24)CCCC3)cc1
readout.number: 1.5

smiles: c1ccc2c(NCCCCCCCCCCNc3c4c(nc5ccccc35)CCCC4)c3c(nc2c1)CCCC3
readout.number: 0.002

smiles: c1ccc(CCCCCCCNc2c3c(nc4ccccc24)CCCC3)cc1
readout.number: 0.36

smiles: c1ccc(CCCCCCCCCNc2c3c(nc4ccccc24)CCCC3)cc1
readout.number: 3

smiles: c1ccc(CCCCCCNc2c3c(nc4ccccc24)CCCC3)cc1
readout.number: 0.52

---

target.system: rat brain AChE (Rattus norvegicus)
Construct: Rat brain homogenate prepared in 10 ml/g 10 mM Tris, pH 7.4, plus 1% Triton X-100 was used as a source of AChE; from tissue; host or cells: rat brain homogenate (10 mM Tris, pH 7.4, 1% Triton X-100)
experiment: biochemical
condition.summary: pH 7.4; read-out: IC50 rat brain AChE

smiles: c1ccc(CCCCCNc2c3c(nc4ccccc24)CCCC3)cc1
IC50: 1.5 µM

---

Items are presented alongside their recorded IC50.
target.system: rat serum BChE (Rattus norvegicus, UniProt Q9JKC1)
Construct: rat serum was the source of BChE; from tissue; host or cells: rat serum
Sequence (Q9JKC1 24-597): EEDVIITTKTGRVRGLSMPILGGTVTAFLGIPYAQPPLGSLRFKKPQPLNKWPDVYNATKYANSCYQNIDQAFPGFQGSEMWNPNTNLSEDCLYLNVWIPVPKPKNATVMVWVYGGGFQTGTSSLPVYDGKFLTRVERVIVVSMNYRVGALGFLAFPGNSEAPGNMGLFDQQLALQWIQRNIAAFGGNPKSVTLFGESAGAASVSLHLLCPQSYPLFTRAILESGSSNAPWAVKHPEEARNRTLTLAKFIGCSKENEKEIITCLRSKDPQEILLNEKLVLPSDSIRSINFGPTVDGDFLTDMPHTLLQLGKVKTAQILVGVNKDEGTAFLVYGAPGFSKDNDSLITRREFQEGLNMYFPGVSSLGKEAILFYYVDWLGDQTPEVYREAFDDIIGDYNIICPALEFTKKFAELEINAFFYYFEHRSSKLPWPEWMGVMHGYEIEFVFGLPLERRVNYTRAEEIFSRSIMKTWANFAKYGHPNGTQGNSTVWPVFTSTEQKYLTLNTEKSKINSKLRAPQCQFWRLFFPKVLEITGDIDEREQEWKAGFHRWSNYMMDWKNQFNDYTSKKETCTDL
experiment: biochemical
observed.property: IC50 (nM)

compound: c1ccc2c(NCCCCCCCCCCNc3c4c(nc5ccccc35)CCCC4)c3c(nc2c1)CCCC3 [1d]
readout.number: 360
--
compound: c1ccc(CCCCCNc2c3c(nc4ccccc24)CCCC3)cc1 [2b]
readout.number: 500
--
compound: c1ccc(CCCCCCCCCNc2c3c(nc4ccccc24)CCCC3)cc1 [2f]
readout.number: 10000
--
compound: c1ccc2c(NCCCCCCCCNc3c4c(nc5ccccc35)CCCC4)c3c(nc2c1)CCCC3 [1b]
readout.number: 216
--
compound: c1ccc(CCCCCCCCNc2c3c(nc4ccccc24)CCCC3)cc1 [2e]
readout.number: 2000
--
compound: c1ccc(CCCCCCNc2c3c(nc4ccccc24)CCCC3)cc1 [2c]
readout.number: 800

---

target.system: rat brain AChE (Rattus norvegicus)
Construct: Rat brain homogenate prepared in 10 ml/g 10 mM Tris, pH 7.4, plus 1% Triton X-100 was used as a source of AChE; from tissue; host or cells: rat brain homogenate (10 mM Tris, pH 7.4, 1% Triton X-100)
experiment: biochemical
Reported values of Selectivity for individual entries

compound: c1ccc(CCCCCCCNc2c3c(nc4ccccc24)CCCC3)cc1 [2d]
Selectivity: 2.8

compound: c1ccc(CCCCCCNc2c3c(nc4ccccc24)CCCC3)cc1 [2c]
Selectivity: 1.5

compound: c1ccc2c(NCCCCCCCCCCNc3c4c(nc5ccccc35)CCCC4)c3c(nc2c1)CCCC3 [1d]
Selectivity: 180.0

compound: c1ccc2c(NCCCCCCCCNc3c4c(nc5ccccc35)CCCC4)c3c(nc2c1)CCCC3 [1b]
Selectivity: 432.0

compound: c1ccc(CCCCCCCCCNc2c3c(nc4ccccc24)CCCC3)cc1 [2f]
Selectivity: 3.3

compound: c1ccc(CCCCCNc2c3c(nc4ccccc24)CCCC3)cc1 [2b]
Selectivity: 0.3

compound: c1ccc(CCCCCCCCNc2c3c(nc4ccccc24)CCCC3)cc1 [2e]
Selectivity: 9.1

meta.source: patent US5886007A
